Provenance of the data: patent US20180057581A1

Target: T1, human cell-surface M-CSF on stably transfected CHO cells (human, UniProt P09603 33-554)
T1 construct: also called csM-CSF
T1 sequence: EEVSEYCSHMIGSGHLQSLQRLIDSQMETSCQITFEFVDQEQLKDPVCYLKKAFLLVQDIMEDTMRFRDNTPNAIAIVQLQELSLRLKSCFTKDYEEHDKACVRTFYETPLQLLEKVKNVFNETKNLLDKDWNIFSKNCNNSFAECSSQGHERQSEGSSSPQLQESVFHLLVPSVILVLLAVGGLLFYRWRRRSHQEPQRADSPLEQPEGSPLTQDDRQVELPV
Test: FACS, CHO cells stably transfected with M-CSF (n = 3)
ENDPOINT NAME: pEC50
In textbook form, pEC50 equals minus log to base ten of the concentration in mol/L.

Ask | // pEC50 lookup, key: HeRX1-10G1, IgG1 (antibody, V domains shown, tested as IgG1) VH: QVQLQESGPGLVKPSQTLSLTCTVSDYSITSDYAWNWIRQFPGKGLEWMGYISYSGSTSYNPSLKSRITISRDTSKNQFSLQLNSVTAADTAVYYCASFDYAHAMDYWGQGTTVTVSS VL: DIVLTQSPAFLSVTPGEKVTFTCQASQSIGTSIHWYQQKTDQAPKLLIKYASESISGIPSRFSGSGSGTDFTLTISSVEAEDAADYYCQQINSWPTTFGGGTKLEIKR
Reply | 7.90
